Molecular target: Proteinase-activated receptor 1 (Homo sapiens, UniProt P25116)
Sequence (P25116 whole entry): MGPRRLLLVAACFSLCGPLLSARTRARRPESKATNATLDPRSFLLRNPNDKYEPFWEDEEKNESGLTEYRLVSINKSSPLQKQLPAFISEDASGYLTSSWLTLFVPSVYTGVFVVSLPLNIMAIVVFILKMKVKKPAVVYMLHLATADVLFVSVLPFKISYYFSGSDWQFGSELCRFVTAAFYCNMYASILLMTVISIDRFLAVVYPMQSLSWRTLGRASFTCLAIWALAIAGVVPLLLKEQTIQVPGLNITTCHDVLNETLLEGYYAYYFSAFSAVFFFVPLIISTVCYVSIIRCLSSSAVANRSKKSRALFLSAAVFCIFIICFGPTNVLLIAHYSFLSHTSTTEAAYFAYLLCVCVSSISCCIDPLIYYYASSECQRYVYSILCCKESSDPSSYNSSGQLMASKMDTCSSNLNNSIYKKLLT
pIC50: −log10 of the molar value. Non-standard residues stand in square brackets, D forms with d. Residues, ends and D or L forms follow the SMILES beside them. *: point of attachment. X3 = CC(=O)N(C(=O)/C=C/c1ccccc1)[C@@H](Cc1ccc(F)cc1)C(=O)*; Phe(4-guanidino) = N=C(N)Nc1ccc(C[C@H](N)C(=O)O)cc1
readout: pIC50

[[record]]
molecule = "CC(=O)N(C(=O)/C=C/c1ccc(Cl)cc1)[C@@H](Cc1ccc(F)cc1)C(=O)N[C@@H](Cc1ccc(NC(=N)N)cc1)C(=O)N[C@@H](CC(C)C)C(=O)N[C@@H](CCCN=C(N)N)C(N)=O"
readout = "pIC50"
meas_value = 7.00


1. CC(=O)N(C(=O)/C=C/c1ccccc1)[C@@H](Cc1ccc(F)cc1)C(=O)N[C@@H](CCc1ccccc1)C(=O)N[C@@H](CC(C)C)C(=O)N[C@@H](CCCN=C(N)N)C(N)=O
2. CC(=O)N(C(=O)/C=C/c1ccccc1)[C@@H](Cc1ccc(F)cc1)C(=O)N[C@@H](Cc1ccc(NC(=N)N)cc1)C(=O)N[C@@H](CC(C)C)C(=O)N[C@@H](CCCN=C(N)N)C(=O)N[C@@H](CCCN=C(N)N)C(N)=O (X3-[Phe(4-guanidino)]LRR-NH2)
3. CC(=O)N(C(=O)c1cc2ccccc2oc1=O)[C@@H](Cc1ccc(F)cc1)C(=O)N[C@@H](Cc1ccc(NC(=N)N)cc1)C(=O)N[C@@H](CC(C)C)C(=O)N[C@@H](CCCN=C(N)N)C(N)=O
4. CC(=O)N(Oc1c[nH]c2ccccc12)[C@@H](Cc1ccc(F)cc1)C(=O)N[C@@H](Cc1ccc(NC(=N)N)cc1)C(=O)N[C@@H](CC(C)C)C(=O)N[C@@H](CCCN=C(N)N)C(N)=O
Write the entries in order, lowest recorded pIC50 first. Provide the labels, sequenced as the question asks.
3, 1, 4, 2
(3: 5.36, 1: 6.20, 4: 6.89, 2: 8.12)
